# assay protocol: yeast display, Sf9 membrane polyspecificity reagent, FACS + sequencing; frameworks hold sequencing errors
quantity: polyreactivity (PSR sort gate)

QVQLVESGGGFDQAGGSLRLSCAASGSIFFYYVMGWYRQAPGKERELVAVISSGGGSTYYADSVKGRFTISRDNAKNTVYLQMNSLKPEDTAVYYCAAGTYYKFYYWGQGTQVTVSS ... high polyreactivity
QVQLVESGGGLVQAGGSLRLSCAASGSIFYSNVMGWYRQAPGKERELVARITVAGSTNYADSVKGRFTISRDNAKNTVYLQMNSLKPEDTAVYYCNARLVIYTYDYWGQGTQVTVSS ... low polyreactivity
QVQLVESGGGLVQAGGSLRLSCAASGRILLSYAMGWYRQAPGKERELVAAISRSGVSTYYADSVKGRFTISRDNAKNTVYLQMNSLKPEDTAVYYCAAVRSSPGKSWDYNYWGQGTQVTVSS ... high polyreactivity
QFQLVESGGGLVQAGGSLRLSCAASGSIFLSNAMGWYRQAPGKERELVADIDWTGGDTYYADSVKGRFRISRDNAKNTVYLQMNSLKREDTAVYYCAADYGYRNLRTEYGYWGQGTQVTVSS ... low polyreactivity

With those in mind, consider the next sequence.
Q: I have this sequence here, `QVQLVESGGGLVQAGGSLRLSCAASGLTFYEYAMGWYRQAPGKERELVAAISWRGDSTHYADSVKGRFTISRDNAKNTVYLQMNSLKPEDTAVYYCNTRRLHGWLYGYEYWGQGTQVTVSS` , and I need its recorded polyreactivity (PSR sort gate).
Ans: low polyreactivity

----------
# assay protocol: yeast display, Sf9 membrane polyspecificity reagent, FACS + sequencing; frameworks hold sequencing errors
quantity: polyreactivity (PSR sort gate)

Examples with answers:
QVQLVESGGGLVQAGGRLRLSCAASAFTFYYYAMGWYRPAPGKERELVAAISWSGGSTYYADSVKGRFTFSRDNAKNTVYLQMNSLKPEDTAVYYCAADVYKQYGYYYWGQGTQVTVSS ... high polyreactivity
QVQLVESGGGLVQAGGSLRLSCAASGIIYYGYVMGWYRQAPGKERELVATITSSGGSKYYADSVKGRFTISRDNAKNTVYLQMNSLKPEDTAVYYCAADYYYGAWVRHDYWGQCTQVTVSS ... low polyreactivity
QVQLVESGGGLVQAGGTLRLSCAASGRIFFSYAMGWYRQAPGKERELVAAITYSGGSTYYADSVKGRFTISRDNAKNTVYLQKNSLKPEDTAVYYCNAELYEKYDYWGQGTQVTLSS ... low polyreactivity
QVQIVESGGGLVQARGSLRLSCAASGRTFYGYALGWYRQAPGKERELVASIRSRTGSTYYADSVKGRFTISRDNAKNTVYLLMNILKPEDTAVYYCARPYYAKGFAFDYWGLGTQVTVSS ... high polyreactivity

With those in mind, consider the next sequence.
Q: I have this sequence here, `QVHLVESGGGLVQAGGSLRLSCAASGRIFADYAMGWYRHAPGKERELVAAISSTSSTNYADSVKGRFTISRDNAKNTVYLQMKSLKPEDTAVYYCAATAGSLTADYVSYTYNYWGQGTQVTVSS` , and I need its recorded polyreactivity (PSR sort gate).
Ans: low polyreactivity

----------
# assay protocol: yeast display, Sf9 membrane polyspecificity reagent, FACS + sequencing; frameworks hold sequencing errors
quantity: polyreactivity (PSR sort gate)

Examples with answers:
QVQLQESGGGLVQAGGSLRLSCAASGNISVTGFMGWYRKAPGKERELVASIGIGGTTYYADSVKGRFSISRDNAKNTVYLQMNSLKPEDTAVYYCAARYLYYAYSYWGQGTQVTVSS ... low polyreactivity
QVQLVESGGGLVQAGCSLRLSCAASGITFNFYAMGWYRQAPGKERELVAAITSSGASTNYADSVKGRFTISRDNAKNTVYLQMNSLYPEDTAVYYCNAQRSRHSLYPVNELYYWGQGTQVTVTS ... low polyreactivity
QVQLVESGGGLVQAGGSLRLSCAASGRTFRSYAMGWYRQAPGKERELVAAISQRGGSTYYADSVKGRFTISRDNAKNTVYLQMNSLKPEDTAVYYCATPVRSGYDYWGQGTQVTVSS ... high polyreactivity
QVQLVESGGGLVQAGGSLRLSCAASGITIYRNAMGWYRQAPGKEMELVAAITRNGGRTYYADSVKGRFTISRDNAKNTVYLQMNSLKPEDTAVDYCAADSGTRNLASYRYYYWGQGTQVTVSS ... high polyreactivity
QGQLVESGGGLVQAGGSLRLSCAASGYIIRAYAMGWYRQAHGKERELVAAISSRGGSTYYADSVKGRFTISRDNAKNTVYLQMNSLKPEDTAVYYCAAAYRQPYIGYGYWGQGTQVTVSS ... high polyreactivity
QVQIVESGGGLVQAGCSLRLSCAASGNIFRGYTMGWYRQAPGKEWELVATITWNGVSTFYADSVKGRFTISRDNAKNTGYLQMNSLKPEDTAVYYCAAYYPSHDYSGFGSDTYEYWGQGTQVTVSS ... low polyreactivity
QVQLVESGGGIVQAGGSLRLLCAASGRNIINYDMGWYRQAPGKERELVAAITWSTGSTYADSVNGRFTISRDNAKNTVYLQMNSLSPEDTAVYYCAAPWGQTDDRHQGGDYWGQGTQVTVSS ... low polyreactivity
PVQLVDSGGGLVQAGGSLRLSCAASGSTFQRNVMGWYRQAPGKERELVAAITWRGTSTYYADSVKGRFTISRDNAKNTVYLQMNSLKPEDTAVYYCAAERTRSGYYYDYWGQGTQVTVSS ... high polyreactivity
QVQLVESGGGLVQAGGSLRLSCAASGSTFPKYAMGWYRQAPGKERELVASISVTTGSTYYADSVKGRFTISRDSAKNTVYLQMNSQKPVDTAVFYCAKRTYSRKFRGAYNYWGQGTQVTVSS ... high polyreactivity
QVQLVESGGGLVQAGGSLRLSCAASGFTFTSYAMGWYRQAPGKERELVAAINRSGGSTTYADSEKGRFTISRDNAKNTVYLQMNSLKPEDTAVYYCAKAFRGHYWGQGTQVTVSS ... high polyreactivity

Q: I have this sequence here, `QVQLVESGVGLVQAGGSLRLRCAASGSTFIVYALRWSRQAPGKERELVAAISWNGGRTYYADSVKGRFTISRDNAKKTVYLQMNSLKPEDTAVYYCPATLYNTEDDYWGQGTQVTLSS` , and I need its recorded polyreactivity (PSR sort gate).
Ans: low polyreactivity
